target: T1, human GM-CSF (granulocyte macrophage-colony stimulating factor) (human, UniProt P04141 18-144); experiment: SPR (ProteOn), mAb captured on protein A, GM-CSF as analyte, Langmuir fit
T1 construct: Soluble cytokine used in ELISA, SPR, TF-1 bioassay and immune complex formation; also called recombinant GM-CSF
T1 sequence (P04141 18-144 limits assumed): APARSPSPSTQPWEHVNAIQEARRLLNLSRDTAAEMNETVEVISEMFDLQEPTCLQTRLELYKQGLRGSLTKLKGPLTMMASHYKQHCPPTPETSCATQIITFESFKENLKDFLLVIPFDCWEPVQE
Recorded pKd by entry
Please note pKd is a logarithmic value: minus log10 of concentration in mol/L. Answer with that number alone.

1. GCA21 (antibody, IgG1, V domains shown, also called GCA21 antibody) VH: QVQLMESGGGVVQPGRSLRLSCSAFGFTFSNYPMHWVRQAPGKGLEWVAIILPDGNRKNYGRSVTGRFTISRDNSNNSLYLQMNNLTTEDTAMYYCTRDGTYYSNGGVYQTYRRFFDFWGRGTLVTVSS VL: DIQMTQSPSTLSTSVGDRVTITCRASQNILNWLAWYQQKPGNAPNLLIYKASDLQSGVPSRFSGSGSGTEFTLTISSLQPDDFATYYCQHYNSYPLTFGGGTKVEIKR | 9.16
2. GCB59 (antibody, IgG1, V domains shown, also called GCB59 antibody) VH: EVQLVESGGDLVKAGGSLRLSCAVSGLSFSSSGMNWVRQAPGKGLEWISSISGSQNYKYYADSVKGRFVVSRDNARNFLYLQMDSLRAEDTAVYFCVGGFPYWLPPSDFSGFHVWGQGTTVTVSS VL: SYVLTQPPSVSVAPGQTASLTCGGTNIGSKSVHWYQQKAGQAPVLVVYADNDRPSGVPERFSGSNSGNTATLTISRVEAEDESDYFCQVWDGNTDHVVFGGGTKLTVLG | 9.17
3. Namilumab (antibody, V domains shown) VH: QVQLVQSGAEVKKPGASVKVSCKAFGYPFTDYLLHWVRQAPGQGLEWVGWLNPYSGDTNYAQKFQGRVTMTRDTSISTAYMELSRLRSDDTAVYYCTRTTLISVYFDYWGQGTMVTVSS VL: DIQMTQSPSSVSASVGDRVTIACRASQNIRNILNWYQQRPGKAPQLLIYAASNLQSGVPSRFSGSGSGTDFTLTINSLQPEDFATYYCQQSYSMPRTFGGGTKLEIK | 9.62

Now turn to the next binder.
Ask: I would be grateful if you could share the reported pKd for GCE536 (antibody, human IgG1, kappa, V domains shown, also called GCE536 antibody) VH: QLQLVQSGTEVKKPGASVKVSCKSSGYVFTSYYLVWVRQAPGQGLEWMATISPGDVNTSYEQRFQGRVTVTTDASTNTVDMELRSLRSEDTAVYYCARGPRSKPPYLYFALDVWGQGTAVTVSS VL: EIVLTQSPGTLSLSPGETAILSCRASQSVSSSLLAWYQQKPGQAPRLLIYGASNRATGIRGRFSGSGSGTDFTLTISRLEPEDFVLYYCQHYGSRVTFGQGTKLEIKR .
Reply: 9.74
